Numbers sourced from patent US10336702B2.

Target: Akt1 (Homo sapiens)
Construct: unspecified tag, removed (detagged) (cleaved yes); purchased SignalChem and Proteros (Akt1); Merck Millipore (PDK1) 14-452 (PDK1); none given for Akt1
Test: Akt activation assay (PDK1-mediated activation, LANCE Ultra crosstide TR-FRET), Akt1
Format: biochemical
Conditions: read-out: Biological Assay 1 IC50 (nM) Akt1
Reported IC50 is given for each of the following compounds.

# count of solved cases: 3
| compound | IC50 |
| --- | --- |
| CC1(C(=O)N[C@H]2CC[C@H](CC(=O)Nc3cnc(-c4ccc(C(C)(C)N)cc4)c(-c4ccccc4)c3)CC2)CC1 [Example A21] | > 37000 nM |
| CCN(C(=O)OC)[C@H]1CC[C@H](CC(=O)Nc2cc(-c3ccccc3)c(-c3ccc([C@]4(N)C[C@](C)(O)C4)cc3)cn2)CC1 [Example 116] | > 30000 nM |
| NC1(c2ccc(-c3ncc(NC(=O)C[C@H]4CC[C@H](NS(=O)(=O)C5CC5)CC4)cc3-c3ccccc3)cc2)COC1 [Example 37] | > 30000 nM |

## Task Look up IC50 for this compound: NC1(c2ccc(-c3ncc(NC(=O)C[C@H]4CC[C@H](NC(=O)C(F)F)CC4)cc3-c3ccccc3)cc2)CC1 [Example A42]
## Result 6900 nM

###

Target: Akt1 (Homo sapiens, UniProt P31749)
Construct: unspecified tag, removed (detagged) (cleaved yes); purchased SignalChem and Proteros (Akt1); Merck Millipore (PDK1) 14-452 (PDK1); none given for Akt1
Test: Akt activation assay (PDK1-mediated activation, LANCE Ultra crosstide TR-FRET), Akt1
Assay type: biochemical
Details: read-out: Biological Assay 1 IC50 (nM) Akt1
Procedure: Biological Assay 1: Akt Activation Assay Addition of a Europium-labelled antibody specific to the phosphopeptide allows energy transfer from the Europium donor to the Ultra Ulight™ acceptor if close enough in proximity. […] 5 μL enzyme in 1×AB was incubated with 2.5 μL test compound. […] Plates read with the EnVision® Multilabel Plate Reader, excitation at 320 nm and emission at 665 nm and 615 nm. Compound IC50 was determined using a 4-parameter equation.
result_type: IC50

| molecule | IC50 |
| --- | --- |
| CCC(=O)N(C)[C@H]1CC[C@H](CC(=O)Nc2cc(-c3ccccc3)c(-c3ccc(C4(N)CC4)c(F)c3)nn2)CC1 | > 30000 nM |
| CN(C1CCC(CC(=O)Nc2cnc(-c3ccc(C(C)(C)N)cc3)c(-c3ccccc3)c2)CC1)C1(C)COC1 (centres unmarked) | > 30000 nM |
| CC(C)(C)C(=O)N[C@H]1CC[C@H](CC(=O)Nc2cnc(-c3ccc(C4(N)CCC4)cc3)c(-c3ccsc3)c2)CC1 | > 27000 nM |

## Task Which IC50 reading was recorded for the molecule CC(=O)N(C)[C@H]1CC[C@H](CC(=O)Nc2cc(-c3ccccc3)c(-c3ccc([C@]4(N)C[C@](C)(O)C4)c(F)c3)cn2)CC1 ?
## Result > 27000 nM

###

Target: p-Akt1 in LNCaP cells (Homo sapiens, UniProt P31749)
Construct: SureFire assays to detect cellular p-Akt1, p-Akt2 and p-Akt3 levels in WM115 cells (Akt2/3) and LNCaP cells (Akt1); endogenous in cells; host or cells: LNCaP (ECACC 89110211)
Sequence (P31749 whole entry): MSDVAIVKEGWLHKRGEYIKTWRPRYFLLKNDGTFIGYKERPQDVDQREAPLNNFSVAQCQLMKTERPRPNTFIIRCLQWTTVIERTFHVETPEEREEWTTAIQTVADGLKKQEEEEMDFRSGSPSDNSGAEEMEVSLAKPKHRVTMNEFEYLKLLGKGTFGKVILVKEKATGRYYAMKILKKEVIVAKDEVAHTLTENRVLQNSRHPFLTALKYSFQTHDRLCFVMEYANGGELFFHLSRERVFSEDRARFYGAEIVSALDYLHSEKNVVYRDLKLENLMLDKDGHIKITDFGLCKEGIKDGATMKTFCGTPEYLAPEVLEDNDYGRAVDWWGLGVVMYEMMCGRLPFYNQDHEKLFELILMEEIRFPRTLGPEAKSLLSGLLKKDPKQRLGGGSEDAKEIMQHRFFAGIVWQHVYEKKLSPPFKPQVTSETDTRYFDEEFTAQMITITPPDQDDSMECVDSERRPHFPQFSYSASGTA
Assay: Phospho-Akt cellular SureFire assay, p-Akt1 in LNCaP cells
Format: cell-based
Settings: read-out: Biological Assay 2 IC50 (nM) Akt1 LNCaP
Protocol: Biological Assay 2: Phospho-Akt (p-Akt) Cellular SureFire Assays The following describes SureFire assays to detect cellular p-Akt1, p-Akt2 and p-Akt3 levels in WM115 cells (Akt2/3) and LNCaP cells (Akt1). […] 2 μL dilution buffer, supplemented with a 1/20 dilution of donor beads was added to each well and incubated for a further 2 h. Plates were read with the EnVision® Multilabel Plate Reader and using the AlphaScreen settings. Compound IC50 was determined using a 4-parameter equation.
Consider the following compounds and their measured IC50 readings.

Past entries and their recorded results:
| compound | tested_on | IC50 |
| --- | --- | --- |
| CN(C(=O)C1CC1)[C@H]1CC[C@H](CC(=O)Nc2cc(-c3ccccc3)c(-c3ccc(C4(N)CCC4)cc3)cn2)CC1 [Example A72] | p-Akt1 in LNCaP cells (Homo sapiens, UniProt P31749) | 8800 nM |
| COC(=O)N(C)[C@H]1CC[C@H](CC(=O)Nc2cc(-c3ccccn3)c(-c3ccc(C4(N)CC4)cc3)cn2)CC1 [Example A88] | p-Akt1 in LNCaP cells (Homo sapiens, UniProt P31749) | > 30000 nM |
| CCC(=O)N(C)[C@H]1CC[C@H](CC(=O)Nc2cc(-c3ccsc3)c(-c3ccc([C@]4(N)C[C@](C)(O)C4)cc3)nn2)CC1 [Example 91] | p-Akt1 in LNCaP cells (Homo sapiens, UniProt P31749) | 3800 nM |
| NC1(c2ccc(-c3cnc(NC(=O)C[C@H]4CC[C@H](N5CCOC5=O)CC4)cc3-c3ccccc3F)cc2)CCC1 [Example A65] | p-Akt1 in LNCaP cells (Homo sapiens, UniProt P31749) | > 30000 nM |
| CC(=O)N[C@H]1CC[C@H](C(C)C(=O)Nc2cnc(-c3ccc(C4(N)CCC4)cc3)c(-c3ccccc3)c2)CC1 (relative stereo) [Example 41] | p-Akt1 in LNCaP cells (Homo sapiens, UniProt P31749) | > 30000 nM |
| COC(=O)N(C)[C@H]1CC[C@H](CC(=O)Nc2cnc(-c3ccc(C(C)(C)N)cc3)c(-c3ccsc3)c2)CC1 [Example A67] | p-Akt1 in LNCaP cells (Homo sapiens, UniProt P31749) | > 30000 nM |

## Task Value lookup for IC50; key = NC1(c2ccc(-c3ncc(NC(=O)[C@@H](F)C4CCN(S(=O)(=O)C5CC5)CC4)cc3-c3ccccc3)cc2)CCC1 [Example 50]
## Result > 30000 nM

## Task What does the record list as IC50 for CCOC(=O)N(C)[C@H]1CC[C@H](CC(=O)Nc2cnc(-c3ccc(C(C)(C)N)cc3)c(-c3ccccc3)c2)CC1 [Example A99] ?
## Result > 30000 nM

## Task Tell me the measured IC50 of CCN(C(=O)OC)[C@H]1CC[C@H](CC(=O)Nc2cnc(-c3ccc([C@]4(N)C[C@](C)(O)C4)cc3)c(-c3ccccc3)c2)CC1 [Example 118] , please.
## Result 1600 nM

## Task Recorded IC50 for CC(=O)N(C)[C@H]1CC[C@H](CC(=O)Nc2cc(-c3ccccc3)c(-c3ccc([C@]4(N)C[C@](C)(O)C4)c(F)c3)nn2)CC1 [Example 127] , please?
## Result > 30000 nM
